Molecular target: human Y2 receptor (human) (UniProt P49146)
Sequence (P49146 whole entry): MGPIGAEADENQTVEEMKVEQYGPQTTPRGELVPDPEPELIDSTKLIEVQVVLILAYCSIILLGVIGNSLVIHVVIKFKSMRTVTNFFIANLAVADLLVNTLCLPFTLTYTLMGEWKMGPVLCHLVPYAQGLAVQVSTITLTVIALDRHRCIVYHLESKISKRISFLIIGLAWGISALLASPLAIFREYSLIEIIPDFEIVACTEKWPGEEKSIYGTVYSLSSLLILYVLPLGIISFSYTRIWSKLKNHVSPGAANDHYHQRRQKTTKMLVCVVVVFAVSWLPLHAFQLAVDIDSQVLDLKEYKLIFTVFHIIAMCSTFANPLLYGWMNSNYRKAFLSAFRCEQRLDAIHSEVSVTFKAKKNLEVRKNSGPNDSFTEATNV
Assay: cell-based or functional assay
Non-standard residues stand in square brackets, D forms with d. Cha = N[C@@H](CC1CCCCC1)C(=O)O; dNMeA = CN[C@H](C)C(=O)O; Aib = CC(C)(N)C(=O)O
ENDPOINT: GBA EC50 Ratio (vs PYY(3-36)), [35S]GTPγS
Give only the figure.

Fill in reported GBA EC50 Ratio (vs PYY(3-36)), [35S]GTPγS for this entry: Ac-S[dNMeA]RH[Cha][Cha]NL[Aib]TRQR[Cha]-NH2 (SMILES CC(=O)N[C@@H](CO)C(=O)N(C)[C@H](C)C(=O)N[C@@H](CCCNC(=N)N)C(=O)N[C@@H](Cc1c[nH]cn1)C(=O)N[C@@H](CC1CCCCC1)C(=O)N[C@@H](CC1CCCCC1)C(=O)N[C@@H](CC(N)=O)C(=O)N[C@@H](CC(C)C)C(=O)NC(C)(C)C(=O)N[C@H](C(=O)N[C@@H](CCCNC(=N)N)C(=O)N[C@@H](CCC(N)=O)C(=O)N[C@@H](CCCNC(=N)N)C(=O)N[C@@H](CC1CCCCC1)C(N)=O)[C@@H](C)O) [Ac-[D-MeAla24, Cha27,28,36, Aib31]-PYY(23-36)]
2.2

All values here come from patent US20120172293A1.
